System: Akkermansia muciniphila
Assay: growth AUC relative to DMSO control (median of replicates) (fraction); higher = more growth (less inhibition), active = hit call of the paper
Details: 20 µM; 24 h
Property: growth AUC; scope: individual compounds
Reply: number alone, nothing else.

compound: CC1=C(C(=O)Nc2ccccc2)SCCO1
test_target: Akkermansia muciniphila
readout: growth AUC
observed: 0.979
//
compound: O=C(O)CNCP(=O)(O)O
test_target: Akkermansia muciniphila
readout: growth AUC
observed: 1.07

// returns reported growth AUC for input CN(C)C(CSS(=O)(=O)[O-])CSS(=O)(=O)[O-].[Na+].[Na+]
0.921

// returns reported growth AUC for input O=[N+]([O-])/N=C1\NCCN1Cc1ccc(Cl)nc1
0.979

// returns reported growth AUC for input CC(Oc1cc(Cl)c(Cl)cc1Cl)C(=O)O (stereo not drawn)
0.958

###

Test system: Bacteroides stercoris
Test: growth AUC relative to DMSO control (median of replicates) (fraction); higher = more growth (less inhibition), active = hit call of the paper;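 active = AUC reduced over 20% with Padj below 0.05 in at least 2 of 3 replicates; inactive = otherwise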
Conditions: 20 µM; 24 h
Pick one: Yes for active, No for inactive

compound: Nc1nc(N)nc(N)n1
answer_label: Yes
//
compound: Oc1cc(Cl)cc(Cl)c1
answer_label: No
//
compound: COP(=O)(OC)Oc1ccc(SC)c(C)c1
answer_label: No
//
compound: CNC(=O)/C=C(\C)OP(=O)(OC)OC
answer_label: No

Which outcome did this test record for the compound CCOP(=S)(OCC)SCCS(=O)CC (stereo unspecified) ?
No

Which outcome did this test record for the compound CCSC(=O)N(CC)C1CCCCC1 ?
No

Which outcome did this test record for the compound CS(=O)(=O)c1ccc(C(=O)C2C(=O)CCCC2=O)c([N+](=O)[O-])c1 ?
No

Which outcome did this test record for the compound CC(C)[C@H](C(=O)O[C@H](C#N)c1cccc(Oc2ccccc2)c1)c1ccc(Cl)cc1 ?
No

Which outcome did this test record for the compound CN/C(=N\[N+](=O)[O-])NCc1cnc(Cl)s1 ?
No

Which outcome did this test record for the compound O=C(NC(=O)c1c(F)cccc1F)Nc1cc(Cl)c(OC(F)(F)C(F)F)c(Cl)c1 ?
No

Which outcome did this test record for the compound CCSCc1ccccc1OC(=O)NC ?
No

Which outcome did this test record for the compound CCOP(=S)(OCC)SCS(=O)C(C)(C)C (stereo unspecified) ?
No

Which outcome did this test record for the compound O=S1(=O)OCC2C(CO1)C1(Cl)C(Cl)=C(Cl)C2(Cl)C1(Cl)Cl (stereo unspecified) ?
No

Which outcome did this test record for the compound COC[C@H](C)N(C(=O)CCl)c1c(C)csc1C ?
No

Which outcome did this test record for the compound Nc1c(Cl)c(F)nc(OCC(=O)O)c1Cl ?
No

Which outcome did this test record for the compound CC(=NCc1ccc(Cl)nc1)NC#N ?
No

Which outcome did this test record for the compound CC[C@H](C)[C@H]1O[C@]2(C=C[C@@H]1C)C[C@@H]1C[C@@H](C/C=C(\C)[C@@H](O[C@H]3C[C@H](OC)[C@@H](O[C@H]4C[C@H](OC)[C@@H](NC)[C@H](C)O4)[C@H](C)O3)[C@@H](C)/C=C/C=C3\CO[C@@H]4[C@H](O)C(C)=C[C@@H](C(=O)O1)[C@]34O)O2.O=C(O)c1ccccc1 ?
Yes

Which outcome did this test record for the compound CS/C(C)=N/OC(=O)N(C)SN(C)C(=O)O/N=C(\C)SC ?
No

Which outcome did this test record for the compound C=CCOC(Cn1ccnc1)c1ccc(Cl)cc1Cl.O=S(=O)(O)O (stereo unspecified) ?
No

Which outcome did this test record for the compound CCOP(=S)(Oc1cnc(C(C)(C)C)nc1)OC(C)C (stereo unspecified) ?
No

Which outcome did this test record for the compound O=C1OCC2C1C1(Cl)C(Cl)=C(Cl)C2(Cl)C1(Cl)Cl (stereo unspecified) ?
No

###

Property: growth AUC; scope: individual compounds
Tested on: Escherichia coli ED1a
Experiment: growth AUC relative to DMSO control (median of replicates) (fraction); higher = more growth (less inhibition), active = hit call of the paper
Conditions: 20 µM; 24 h
Reply: number alone, nothing else.

compound: O=C(NC(=O)c1c(F)cccc1F)Nc1ccc(Cl)cc1
growth AUC: 0.993
--
compound: N#CC(CCc1ccc(Cl)cc1)(Cn1cncn1)c1ccccc1 (configuration not stated)
growth AUC: 1.03

// returns reported growth AUC for input CO/C=C(/C(=O)OC)c1ccccc1COc1cccc(C(F)(F)F)n1
0.989

###

Test system: Roseburia intestinalis
Assay: growth AUC relative to DMSO control (median of replicates) (fraction); higher = more growth (less inhibition), active = hit call of the paper
Conditions: 20 µM; 24 h
Would you please tag the item true when its growth AUC is 1 or above, and false when it is below?

Answered examples (6):
compound: CN(C)C(=O)C(c1ccccc1)c1ccccc1
answer_label: false

compound: COCC(=O)N(c1c(C)cccc1C)[C@H](C)C(=O)OC
answer_label: false

compound: c1ccc2c(c1)ccc1c3ccccc3sc21
answer_label: false

compound: CCCN(CC)CC1COC2(CCC(C(C)(C)C)CC2)O1 (stereo not drawn)
answer_label: true

compound: CC(C)(C)C(O)(CCc1ccc(Cl)cc1)Cn1cncn1 (stereo not drawn)
answer_label: true

compound: CC1(C)[C@H](/C=C(\Cl)C(F)(F)F)[C@@H]1C(=O)O[C@@H](C#N)c1cccc(Oc2ccccc2)c1
answer_label: false

Reported growth AUC reaches at least 1 for CC1(C)C(C=C(Cl)Cl)C1C(=O)OC(C#N)c1ccc(F)c(Oc2ccccc2)c1 (mixture of isomers) ?
false

Reported growth AUC reaches at least 1 for COP(=S)(OC)SCC(=O)N(c1ccc(Cl)cc1)C(C)C ?
true

Reported growth AUC reaches at least 1 for CCS(=O)(=O)CCSP(=O)(OC)OC ?
true

Reported growth AUC reaches at least 1 for CCOP(=S)(OCC)SCCS(=O)CC (stereo not drawn) ?
false

Reported growth AUC reaches at least 1 for Clc1ccc(C2(Cn3cncn3)OCCO2)c(Cl)c1 ?
false

Reported growth AUC reaches at least 1 for CCO/N=C(\CC)C1=C(O)CC(c2c(C)cc(C)cc2C)CC1=O (stereo not drawn) ?
false

###

Test system: Bacteroides dorei
Assay: growth AUC relative to DMSO control (median of replicates) (fraction); higher = more growth (less inhibition), active = hit call of the paper
Settings: 20 µM; 24 h
Would you please tag the item label 1 when its growth AUC is 1 or above, and label 0 when it is below?

compound: CCc1cccc(CC)c1N(COC)C(=O)CCl
test_target: Bacteroides dorei
answer_label: label 0
--
compound: COP(=S)(OC)Oc1ccc(S(C)=O)c(C)c1 (stereo not given)
test_target: Bacteroides dorei
answer_label: label 1
--
compound: N#Cc1nn(-c2c(Cl)cc(C(F)(F)F)cc2Cl)c(N)c1S(=O)C(F)(F)F (stereo not given)
test_target: Bacteroides dorei
answer_label: label 0

Kindly consider the entry below.
Reported growth AUC reaches at least 1 for Cc1c(F)c(F)c(COC(=O)[C@@H]2[C@H](/C=C(\Cl)C(F)(F)F)C2(C)C)c(F)c1F (mixture of isomers) ?
label 0

###

Tested on: Escherichia coli IAI1
Test: growth AUC relative to DMSO control (median of replicates) (fraction); higher = more growth (less inhibition), active = hit call of the paper
Conditions: 20 µM; 24 h
readout: growth AUC
Reply: number alone, nothing else.

Reference set, count: 3
compound: COCc1c(F)c(F)c(COC(=O)[C@@H]2[C@@H](C=C(Cl)Cl)C2(C)C)c(F)c1F
growth AUC: 1.02

compound: COc1cc(C)c(C(=O)c2c(OC)ccc(Br)c2C)c(OC)c1OC
growth AUC: 0.971

compound: O=C(O)c1ccc(=O)[nH]c1
growth AUC: 1.03

// returns reported growth AUC for input COCC(=O)N(c1c(C)cccc1C)[C@@H](C)C(=O)OC
1

// returns reported growth AUC for input Cc1ccc2nc3sc(=O)sc3nc2c1
0.948

// returns reported growth AUC for input c1ccc(-c2ccccc2)cc1
1.01

###

Property: growth AUC; scope: individual molecules
Tested on: Bacteroides caccae
Assay: growth AUC relative to DMSO control (median of replicates) (fraction); higher = more growth (less inhibition), active = hit call of the paper
Conditions: 20 µM; 24 h

Reference set, count: 3
molecule: CCCCOCN(C(=O)CCl)c1c(CC)cccc1CC
readout: growth AUC
observed: 0.909 (inactive)
//
molecule: O=C1C=CC(=O)C=C1
readout: growth AUC
observed: 0.991 (inactive)
//
molecule: CNC(=O)Oc1cc(C)c(S(C)(=O)=O)c(C)c1
readout: growth AUC
observed: 1.02 (inactive)

// returns reported growth AUC for input CCNc1nc(NC(C)C)nc(OC)n1
0.971 (inactive)

// returns reported growth AUC for input Clc1cccc(C(Cl)(Cl)Cl)n1
1.01 (inactive)

// returns reported growth AUC for input O=C(O)c1c(Cl)ccc2cc(Cl)cnc12
1 (inactive)

// returns reported growth AUC for input O=c1oc2ccccc2c(O)c1C1CCCc2ccccc21 (configuration not stated)
0.938 (inactive)
